Tested on: THP1 cells
PROCEDURE_DETAILS: Lipopolysaccharide-activated THP1 cell TNF production assay
Assay type: cell-based, human
CONDITION_SET: Homo sapiens, THP-1; LPS-induced TNF-α production in THP1 cells
pIC50: −log10 of the molar value.
Can you tell me pIC50 for the items I'm about to list?

| ENTRY_SMILES | RESULT |
| --- | --- |
| Cc1ccc(C(=O)NC2CC2)cc1-c1ccn2c(-c3ccc(S(C)(=O)=O)cc3Cl)nnc2c1 | 6.60 to 7.00 |

Batch request: pIC50 per item, same order as input.
1. Cc1ccc(C(=O)NC2CC2)cc1-c1ccn2c(-c3cccc(S(C)(=O)=O)c3)nnc2c1
2. Cc1cc(F)c(C(=O)NC2CC2)cc1-c1ccn2c(-c3sccc3C)nnc2c1
3. Cc1ccc(C(=O)NC2CC2)cc1-c1ccn2c(-c3c(F)cccc3Cl)nnc2c1
4. Cc1ccc(C(=O)NC(C)C)cc1-c1ccn2c(-c3ccccc3Cl)nnc2c1
5. Cc1ccc(C(=O)NC2CC2)cc1-c1ccn2c(C3CCCC3)nnc2c1

Key:
6.00 to 6.60
7.00 to 7.60
> 7.60
6.60 to 7.00
> 7.60

----------
Test system: THP1 cells
PROCEDURE_DETAILS: Lipopolysaccharide-activated THP1 cell TNF production assay
Format: cell-based, human
CONDITION_SET: Homo sapiens, THP-1; LPS-induced TNF-α production in THP1 cells
Can you tell me IC50 for the items I'm about to list?

Batch request: IC50 per item, same order as input.
1. Cc1ccc(C(=O)NC2CC2)cc1-c1ccn2c(C(F)(F)F)nnc2c1
2. Cc1ccc(C(=O)NC2(C)CC2)cc1-c1ccn2c(-c3ccccc3Cl)nnc2c1
3. Cc1ccc(C(=O)NC2CC2)cc1-c1ccn2c(-c3cc(F)ccc3Cl)nnc2c1

Key:
1. 250 to 1000 nM
2. 25 to 100 nM
3. < 25 nM

----------
Tested on: THP1 cells
PROCEDURE_DETAILS: Lipopolysaccharide-activated THP1 cell TNF production assay
Format: cell-based, human
CONDITION_SET: Homo sapiens, THP-1; LPS-induced TNF-α production in THP1 cells
pIC50: −log10 of the molar value.
ENDPOINT_LABEL: pIC50

Batch request: pIC50 per item, same order as input.
1. Cc1ccc(C(=O)NC2CC2)cc1-c1ccn2c(N3CCCCC3)nnc2c1 [Example 99]
2. Cc1c(F)cc(C(=O)Nc2ccon2)cc1-c1ccn2c(-c3c(F)cccc3F)nnc2c1 [Example 92]

Key:
["7.00 to 7.60", "> 7.60"]

Batch request: pIC50 per item, same order as input.
1. Cc1ccc(C(=O)NC2CC2)cc1-c1ccn2c(C3CC3)nnc2c1 [Example 93]
2. Cc1c(F)cc(C(=O)NC2CC2)cc1-c1ccn2c(-c3c(F)cccc3Cl)nnc2c1 [Example 56]

Key:
1. 7.00 to 7.60
2. > 7.60

Batch request: pIC50 per item, same order as input.
1. Cc1ccc(C(=O)NC2CC2)cc1-c1ccn2c(-c3ccc(F)cc3C)ncc2c1 [Example 22]
2. Cc1ccc(C(=O)NC2CC2)cc1-c1ccn2c(N3CCNC3=O)nnc2c1 [Example 100]
3. Cc1cc(F)c(C(=O)NC2CC2)cc1-c1ccn2c(-c3ccccc3Cl)nnc2c1 [Example 70]
4. Cc1ccc(C(=O)NC2CC2)cc1-c1ccn2c(-c3c(F)cccc3C(F)(F)F)nnc2c1 [Example 69]

Key:
1: 7.00 to 7.60; 2: 6.00 to 6.60; 3: 7.00 to 7.60; 4: > 7.60

Batch request: pIC50 per item, same order as input.
1. Cc1c(F)cc(C(=O)NC2CC2)cc1-c1ccn2c(-c3ccccc3Cl)nnc2c1 [Example 51]
2. Cc1ccc(C(=O)NC2CC2)cc1-c1ccn2c(-c3ccccc3)nnc2c1 [Example 37]

Key:
1: > 7.60; 2: 6.60 to 7.00

----------
Test system: THP1 cells
PROCEDURE_DETAILS: Lipopolysaccharide-activated THP1 cell TNF production assay
Type: cell-based, human
CONDITION_SET: Homo sapiens, THP-1; LPS-induced TNF-α production in THP1 cells
pIC50: −log10 of the molar value.
Can you tell me pIC50 for the items I'm about to list?

Past entries and their recorded results:
| ENTRY_SMILES | pIC50 |
| --- | --- |
| Cc1ccc(C(=O)NC2CC2)cc1-c1ccn2c(C(C)(C)C)nnc2c1 | 7.00 to 7.60 |
| Cc1ccc(C(=O)Nc2ccnn2C)cc1-c1ccn2c(C3(C(F)(F)F)CC3)nnc2c1 | > 7.60 |

Turning now to a further record.
Exercise: Please provide the recorded pIC50 for "Cc1ccc(C(=O)Nc2ccnn2C)cc1-c1ccn2c(-c3ccccc3Cl)ncc2c1" , tested on THP1 cells.
Key: > 7.60
